B1: library; numbered along this chain (parent)
chain: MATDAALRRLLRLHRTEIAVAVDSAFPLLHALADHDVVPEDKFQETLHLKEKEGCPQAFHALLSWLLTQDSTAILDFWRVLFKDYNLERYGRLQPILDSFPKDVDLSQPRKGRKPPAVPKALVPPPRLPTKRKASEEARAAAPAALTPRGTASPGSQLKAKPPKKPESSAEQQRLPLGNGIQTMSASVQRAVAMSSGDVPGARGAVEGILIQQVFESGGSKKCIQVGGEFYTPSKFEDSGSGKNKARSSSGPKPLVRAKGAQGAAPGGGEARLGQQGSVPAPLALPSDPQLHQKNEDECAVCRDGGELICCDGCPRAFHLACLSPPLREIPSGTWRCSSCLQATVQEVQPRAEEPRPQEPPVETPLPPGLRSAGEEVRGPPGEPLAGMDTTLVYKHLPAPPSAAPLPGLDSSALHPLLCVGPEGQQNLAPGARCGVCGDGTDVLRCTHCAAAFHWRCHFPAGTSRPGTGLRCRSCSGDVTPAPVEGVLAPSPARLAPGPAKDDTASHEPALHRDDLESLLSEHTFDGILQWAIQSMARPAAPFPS

# Variants of: B1
# PROTOCOL DETAILS: AIRE transcriptional activation functional score (insulin promoter-GFP; nonsense median 0, synonymous median 1) (normalised score); higher = higher AIRE activity (more reporter activation)
# CONDITION DETAILS: with insulin promoter-GFP reporter in HEK293
Binning of AIRE transcriptional activation functional score into classes: one (below 0.5), two (0.5 to below 1), three (1 or more)

   variant_annotation  class_name
0               P542I       three
1               P233K         one
2               V192W         two
3               A140L       three
4               I181A         one
5                I18P         one
6                L67T         one
7               G269S       three
8               P109C         two
9               G269W       three

This collection of values is drawn from the supplement of paper PMC12667976.
